Below are compounds with their IC50 as measured on UniProtKB Q9NUW8.
Sequence (Q9NUW8 whole entry): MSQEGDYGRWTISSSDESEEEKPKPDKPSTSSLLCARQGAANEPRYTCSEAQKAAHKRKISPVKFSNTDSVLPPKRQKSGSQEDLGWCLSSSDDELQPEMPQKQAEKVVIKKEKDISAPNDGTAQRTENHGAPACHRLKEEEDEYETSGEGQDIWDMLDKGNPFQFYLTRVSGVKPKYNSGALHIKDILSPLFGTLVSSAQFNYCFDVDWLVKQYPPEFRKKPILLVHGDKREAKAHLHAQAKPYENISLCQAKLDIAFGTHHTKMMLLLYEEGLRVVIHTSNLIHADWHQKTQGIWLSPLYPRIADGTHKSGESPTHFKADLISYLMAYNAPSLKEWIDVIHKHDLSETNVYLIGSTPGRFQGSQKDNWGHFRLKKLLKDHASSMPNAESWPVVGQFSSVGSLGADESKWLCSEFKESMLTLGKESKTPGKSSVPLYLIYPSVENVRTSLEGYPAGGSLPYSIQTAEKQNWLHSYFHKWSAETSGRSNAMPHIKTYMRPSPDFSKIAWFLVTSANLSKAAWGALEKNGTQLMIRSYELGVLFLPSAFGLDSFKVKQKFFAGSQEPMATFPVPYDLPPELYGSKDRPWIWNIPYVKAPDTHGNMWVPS
measured property: IC50

* O=C(O)c1ccc(Nc2c(-c3ccc(CCOCc4ccc(-c5ccccn5)cc4)cc3)nc3cc(-c4ccccc4)ccn23)cc1C(=O)O | 19.8 µM
* N#Cc1ccc(-c2ccc(Cn3cc(-c4ccc(-c5nc6cc(-c7ccccc7)ccn6c5Nc5ccc(C(=O)O)cc5)cc4)nn3)cc2)nc1 | 3.3 µM
* O=C(O)c1ccc(Nc2c(-c3ccc(CCOCc4ccc(-c5ccccc5)cc4)cc3)nc3cc(-c4ccccc4)ccn23)cc1C(=O)O | 11.3 µM
* O=C(O)c1ccc(Nc2c(-c3ccccc3)nc3cc(-c4ccccc4)ccn23)cc1C(=O)O | > 100 µM
